- measurement.description: in vivo
- measurement.setup: rat, po, 50 g/kg, Tmax, CCl4 group rats, oral AE-PM 50 g/kg, plasma, n = 6
parameter.measured: Tmax (min)
Express it in min; write the number only.

Query: For the compound shown here, O=C(O)c1cc(O)c(O)c(O)c1 , give the reported Tmax.
Result: 15

----------
- measurement.description: Pharmacokinetics of AE-PM components and their phase II metabolites in rat plasma after single oral administration (UHPLC-MS/MS, with and without sulfatase hydrolysis)
- measurement.setup: rat, plasma, po, 50 g/kg, t1/2z, ANIT group rats; oral AE-PM 50 g/kg; plasma; n = 6
So basically, if half-life comes in under 4 h it's 1.0, and if it's 4 h or more it's 0.0.

# count of solved cases: 5
Query: State whether 4 h exceeds half-life recorded for OC[C@H]1O[C@@H](Oc2c(O)cc(O)cc2/C=C/c2ccc(O)cc2)[C@H](O)[C@@H](O)[C@@H]1O .
Result: 1.0

Query: State whether 4 h exceeds half-life recorded for O=C1c2cccc(O)c2C(=O)c2c(O)cc(CO)cc21 .
Result: 0.0

Query: State whether 4 h exceeds half-life recorded for COc1cc(O)c2c(c1)C(=O)c1cc(C)cc(O)c1C2=O .
Result: 0.0

Query: State whether 4 h exceeds half-life recorded for COc1cc(O)c2c(c1)C(=O)c1cc(C)cc(O[C@@H]3O[C@H](CO)[C@@H](O)[C@H](O)[C@H]3O)c1C2=O [P-glu, physcion-8-O-β-D-glucoside] .
Result: 1.0

Query: State whether 4 h exceeds half-life recorded for Oc1cc(O)c2c(c1)O[C@H](c1ccc(O)c(O)c1)[C@@H](O)C2 .
Result: 0.0

# input for lookup
Query: State whether 4 h exceeds half-life recorded for Cc1cc(O[C@@H]2O[C@H](CO)[C@@H](O)[C@H](O)[C@H]2O)c2c(c1)C(=O)c1cc(O)cc(O)c1C2=O [E-glu, emodin-8-O-β-D-glucoside] .
Result: 0.0

----------
- measurement.description: Pharmacokinetics of AE-PM components and their phase II metabolites in rat plasma after single oral administration (UHPLC-MS/MS, with and without sulfatase hydrolysis)
- measurement.setup: rat, plasma, po, 50 g/kg, Cmax, ANIT group rats; oral AE-PM 50 g/kg; plasma; n = 6
parameter.measured: Cmax
Kindly write the number and append the unit.

Query: For the molecule shown here, OC[C@H]1O[C@@H](Oc2c(O)cc(O)cc2/C=C/c2ccc(O)cc2)[C@H](O)[C@@H](O)[C@@H]1O , give the reported Cmax.
Result: 99300 ng/mL

Query: For the molecule shown here, Cc1cc(O[C@@H]2O[C@H](CO)[C@@H](O)[C@H](O)[C@H]2O)c2c(c1)C(=O)c1cc(O)cc(O)c1C2=O [E-glu, emodin-8-O-β-D-glucoside] , give the reported Cmax.
Result: 633 ng/mL

Query: For the molecule shown here, COc1cc(O)c2c(c1)C(=O)c1cc(C)cc(O[C@@H]3O[C@H](CO)[C@@H](O)[C@H](O)[C@H]3O)c1C2=O [P-glu, physcion-8-O-β-D-glucoside] , give the reported Cmax.
Result: 223 ng/mL

Query: For the molecule shown here, Cc1cc(O)c2c(c1)C(=O)c1cc(O)cc(O)c1C2=O , give the reported Cmax.
Result: 607 ng/mL

Others:
Query: For the molecule shown here, COc1cc(O)c2c(c1)C(=O)c1cc(C)cc(O)c1C2=O , give the reported Cmax.
Result: 1510 ng/mL

Query: For the molecule shown here, Oc1cc(O)c2c(c1)O[C@H](c1ccc(O)c(O)c1)[C@@H](O)C2 , give the reported Cmax.
Result: 84.5 ng/mL

Query: For the molecule shown here, O=C1c2cccc(O)c2C(=O)c2c(O)cc(CO)cc21 , give the reported Cmax.
Result: 1570 ng/mL

# credit: paper PMC8245786
